system: Staphylococcus aureus; assay: Antibacterial activity against tetracycline/methicillin-resistant Staphylococcus aureus XU212 after 16 hrs by microdilution method; format: functional; details: XU212, 16 h
Answer each item with its documented MIC.

The cases that follow already have their MIC on record.
[[record]]
compound = "O=C(O)CCC(=O)c1cc(C2CCCCC2)ccc1C1CCCCC1"
subject_of_test = "Staphylococcus aureus"
assay_value = "47 µM"

[[record]]
compound = "CC(=O)c1cc(C2CCCCC2)ccc1C1CCCCC1"
subject_of_test = "Staphylococcus aureus"
assay_value = "225 µM"

[[record]]
compound = "CC(C)c1ccc(C(=O)/C=C(\\O)C(=O)O)c(C(C)C)c1"
subject_of_test = "Staphylococcus aureus"
assay_value = "464 µM"

[[record]]
compound = "O=C(O)/C(O)=C/C(=O)c1cccc(C(F)(F)F)c1"
subject_of_test = "Staphylococcus aureus"
assay_value = "> 128 µg/mL"

[[record]]
compound = "Cc1ccccc1C(=O)/C=C(\\O)C(=O)O"
subject_of_test = "Staphylococcus aureus"
assay_value = "> 128 µg/mL"


I need MIC for every entry listed below, if you could help.
1. CC(C)(C)c1ccc(C(=O)/C=C(\O)C(=O)O)cc1
2. O=C(O)/C(O)=C/C(=O)c1ccc(-n2ccnc2)cc1

Result:
1. > 128 µg/mL
2. 496 µM

I need MIC for every entry listed below, if you could help.
1. Cc1cc(C(=O)/C=C(\O)C(=O)O)cc(C)c1O
2. Cc1cc(C)c(C(=O)/C=C(\O)C(=O)O)cc1C
3. O=C(O)/C(O)=C/C(=O)c1ccc2c(c1)CCCC2

Result:
> 128 µg/mL
> 128 µg/mL
> 128 µg/mL

I need MIC for every entry listed below, if you could help.
1. CC(C)c1cc(C(C)C)c(C(=O)/C=C(\O)C(=O)O)c(C(C)C)c1
2. CC(C)c1cc(C(C)C)c(C(=O)CCC(=O)O)c(C(C)C)c1
3. CN(C)c1ccc(C(=O)/C=C(\O)C(=O)O)cc1
4. O=C(O)/C(O)=C/C(=O)c1ccc(N2CCOCC2)cc1
5. CN1CCN(c2ccc(C(=O)/C=C(\O)C(=O)O)cc2)CC1

Result:
1: 50 µM; 2: > 128 µg/mL; 3: > 128 µg/mL; 4: > 128 µg/mL; 5: > 128 µg/mL

I need MIC for every entry listed below, if you could help.
1. CCCCc1ccc(C(=O)/C=C(\O)C(=O)O)cc1
2. Cc1cccc(C(=O)/C=C(\O)C(=O)O)c1

Result:
1. 258 µM
2. > 128 µg/mL

I need MIC for every entry listed below, if you could help.
1. COc1ccccc1C(=O)/C=C(\O)C(=O)O
2. Cc1cc(C)c(C)c(C(=O)/C=C(\O)C(=O)O)c1C
3. Cc1ccc(C(=O)/C=C(\O)C(=O)O)c(C)c1
4. COc1cc(C)c(C(=O)/C=C(\O)C(=O)O)cc1C
5. CCc1cc(CC)c(C(=O)/C=C(\O)C(=O)O)c(CC)c1
6. O=C(O)/C(O)=C/C(=O)c1ccc(-c2ccccc2)cc1
7. COc1cccc(C(=O)/C=C(\O)C(=O)O)c1

Result:
["> 128 µg/mL", "> 128 µg/mL", "> 128 µg/mL", "> 128 µg/mL", "232 µM", "> 128 µg/mL", "> 128 µg/mL"]

Request: What value of MIC has been reported for the following compound? O=C(O)/C(O)=C/C(=O)c1cccc(Br)c1
Result: > 128 µg/mL

FYI, the data here is from ChEMBL document CHEMBL4138171.
